STUDY_SYSTEM: UniProt P11387
Sequence (P11387 whole entry): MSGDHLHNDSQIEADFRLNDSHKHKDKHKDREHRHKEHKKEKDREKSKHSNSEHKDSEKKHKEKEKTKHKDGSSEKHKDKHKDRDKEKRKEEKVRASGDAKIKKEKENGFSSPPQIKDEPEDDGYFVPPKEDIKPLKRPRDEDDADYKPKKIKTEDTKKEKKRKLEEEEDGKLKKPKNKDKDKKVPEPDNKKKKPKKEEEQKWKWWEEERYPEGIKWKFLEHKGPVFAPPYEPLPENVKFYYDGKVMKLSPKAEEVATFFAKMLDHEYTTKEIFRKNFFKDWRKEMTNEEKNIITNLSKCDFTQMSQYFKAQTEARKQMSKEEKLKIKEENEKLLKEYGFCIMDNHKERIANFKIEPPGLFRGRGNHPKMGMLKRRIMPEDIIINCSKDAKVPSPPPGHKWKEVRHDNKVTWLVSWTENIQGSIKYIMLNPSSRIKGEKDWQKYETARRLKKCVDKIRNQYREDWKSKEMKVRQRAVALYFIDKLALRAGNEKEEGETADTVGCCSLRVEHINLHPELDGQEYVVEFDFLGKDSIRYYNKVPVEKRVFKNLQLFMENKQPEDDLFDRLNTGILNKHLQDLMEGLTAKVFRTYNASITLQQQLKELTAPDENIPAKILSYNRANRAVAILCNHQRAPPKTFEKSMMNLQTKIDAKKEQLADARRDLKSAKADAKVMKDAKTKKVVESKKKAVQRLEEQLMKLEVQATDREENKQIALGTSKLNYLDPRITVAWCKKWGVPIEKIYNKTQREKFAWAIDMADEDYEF
METHOD_SUMMARY: Potency index, ratio of compound activity to CPT activity for inhibition of recombinant human topoisomerase 1 at 20 uM

- STRUCTURE_NOTATION: "Cc1ccc2c(=O)[nH]c(-c3cccc(C(F)(F)F)c3)nc2c1"
  Ratio: 3.04
- STRUCTURE_NOTATION: "CCN(CC)c1ccc2nc(-c3cccc4ccccc34)[nH]c(=O)c2c1"
  Ratio: 0.83
- STRUCTURE_NOTATION: "Cc1ccc2nc(-c3cccc(F)c3)[nH]c(=O)c2c1"
  Ratio: 0.01
- STRUCTURE_NOTATION: "CCN(CC)c1ccc2nc(-c3ccccc3C(F)(F)F)[nH]c(=O)c2c1"
  Ratio: 0.49
- STRUCTURE_NOTATION: "Cc1ccc2c(=O)[nH]c(-c3cccc(F)c3)nc2c1"
  Ratio: 0.16
- STRUCTURE_NOTATION: "Cc1ccc2c(=O)[nH]c(-c3ccccc3N(C)C)nc2c1"
  Ratio: 0.19
- STRUCTURE_NOTATION: "CN(C)c1ccc2nc(-c3cccc4ccccc34)[nH]c(=O)c2c1"
  Ratio: 0.14
